# test-target: HLA-A*02:01 (Homo sapiens, UniProt P04439, D140Y/D185E/D98H/E176V/E277Q/G131W/G231S/I119V/I121R/I166T/I218V/L300P/L318F/N151K/N90K/P208A/P217A/Q86G/Q94H/R138H/R169H/T345S)
# assay-protocol: HLA-peptide competition binding assay, A*02:01
# conditions-used: read-out: IC50 nM, target assay A*02:01
Where no end group is shown, it is not given here.
endpoint-name: IC50 (nM)

Answered cases to consult:
{"macromolecule-sequence": "ALGDLFQSI [reference compound]", "output-unit": "nM", "experimental-value": 76}
{"macromolecule-sequence": "HLSYHRLLPL [reference compound]", "output-unit": "nM", "experimental-value": 4260}
{"macromolecule-sequence": "FLWSVFWLI [reference compound]", "output-unit": "nM", "experimental-value": 55}

[a] GLLQVHHSCPL [reference compound]
[b] STVASWLGPV [reference compound]
input: Which has the higher IC50, a or b ? Record your answer as the label of the chosen record.
output: b
(b: 9230 nM, a: 5.8 nM)

[a] ELAEYLYNI [reference compound]
[b] FLWSVFMLI [reference compound]
[c] HIAGSLAVV [reference compound]
[d] TVASRLGPV [reference compound]
[e] RLLPLWAAL [RLLPLWAAL, reference compound]
input: Sort these sequences on IC50 so the largest reading comes first. Give the labels in the order requested.
output: d, a, c, e, b
(d: 7700 nM, a: 637 nM, c: 216 nM, e: 52 nM, b: 26 nM)

[A] SMPQGTFPV [reference compound]
[B] VLFGLGFAI [reference compound]
input: I need your help: which of the pair A , B has higher IC50? In your reply, give the label of the chosen option.
output: A
(A: 631 nM, B: 149 nM)

* * *

# test-target: HLA-A*02:01 (Homo sapiens, UniProt P04439, D140Y/D185E/D98H/E176V/E277Q/G131W/G231S/I119V/I121R/I166T/I218V/L300P/L318F/N151K/N90K/P208A/P217A/Q86G/Q94H/R138H/R169H/T345S)
# assay-protocol: HLA-peptide competition binding assay, A*02:01
# conditions-used: unmodified (wild type) insulin-derived peptide; radiolabeled ligand competition, purified MHC, two-day incubation, three or more independent experiments; read-out: A*02:01 binding, WT
pIC50: −log10 of the molar value. Where no end group is shown, it is not given here.
endpoint-name: pIC50

The examples below pair each entry with its known result.
{"macromolecule-sequence": "EALYLVCGER", "pIC50": 5.00}
{"macromolecule-sequence": "LYLVCGERG", "pIC50": 4.55}
{"macromolecule-sequence": "MALWMRLLP", "pIC50": 5.34}

[P] LWMRLLPLLA
[Q] CGSHLVEALY
input: Lab note: record which item had the higher pIC50, P or Q . State your choice using its label.
output: P
(P: 6.39, Q: 4.47)

* * *

# test-target: HLA-A*02:01 (Homo sapiens, UniProt P04439, D140Y/D185E/D98H/E176V/E277Q/G131W/G231S/I119V/I121R/I166T/I218V/L300P/L318F/N151K/N90K/P208A/P217A/Q86G/Q94H/R138H/R169H/T345S)
# assay-protocol: HLA-peptide competition binding assay, A*02:01
# conditions-used: read-out: A*02:01 binding (IC50 nM) Modified
Where a SMILES comes first, the peptide text is derived from it. [ ]: non-standard residue; d: D form. Cit = NC(=O)NCCC[C@H](N)C(=O)O
endpoint-name: IC50 (nM)
# number only, unit nM dropped from output

{"compound": "CC(C)C[C@H](NC(=O)[C@H](CC(=O)O)NC(=O)[C@H](CCC(=O)O)NC(=O)[C@H](C)NC(=O)[C@H](CCC(=O)O)NC(=O)[C@H](CCCNC(N)=O)NC(=O)[C@H](CCCNC(N)=O)NC(=O)[C@@H](NC(=O)[C@@H](N)CCCCN)[C@@H](C)O)C(=O)N[C@@H](CCC(N)=O)C(=O)O (H-KT[Cit][Cit]EAEDLQ-OH)", "output-unit": "nM", "IC50": 22300}

Next up:
input: Consider the compound shown here: CC(C)C[C@H](NC(=O)[C@H](CC(C)C)NC(=O)[C@H](C)NC(=O)[C@H](CC(C)C)NC(=O)[C@H](CC(C)C)NC(=O)[C@@H]1CCCN1C(=O)[C@H](CC(C)C)NC(=O)[C@H](CC(C)C)NC(=O)[C@@H](N)CCCNC(N)=O)C(=O)O (H-[Cit]LLPLLALL-OH) What is its recorded IC50?
output: 83

* * *

Recorded IC50, one value per entry.
# test-target: HLA-A*02:01 (Homo sapiens, UniProt P04439, D140Y/D185E/D98H/E176V/E277Q/G131W/G231S/I119V/I121R/I166T/I218V/L300P/L318F/N151K/N90K/P208A/P217A/Q86G/Q94H/R138H/R169H/T345S)
# assay-protocol: HLA-peptide competition binding assay, A*02:01
# conditions-used: read-out: A*02:01 binding (IC50 nM) Modified
Where a SMILES comes first, the peptide text is derived from it. [ ]: non-standard residue; d: D form. Cya = N[C@@H](CS(=O)(=O)O)C(=O)O; Cit = NC(=O)NCCC[C@H](N)C(=O)O
Expressed in nM, but write only the number.

{"compound": "CSCC[C@H](NC(=O)[C@H](Cc1c[nH]c2ccccc12)NC(=O)[C@@H](N)CC(C)C)C(=O)N[C@@H](CCCNC(N)=O)C(=O)N[C@@H](CC(C)C)C(=O)N[C@@H](CC(C)C)C(=O)N1CCC[C@H]1C(=O)N[C@@H](CC(C)C)C(=O)N[C@@H](CC(C)C)C(=O)O (H-LWM[Cit]LLPLL-OH)", "IC50, nM": 148}
{"compound": "CC(C)C[C@H](NC(=O)[C@@H](N)Cc1ccc(O)cc1)C(=O)N[C@H](C(=O)N[C@@H](CS(=O)(=O)O)C(=O)NCC(=O)N[C@@H](CCC(=O)O)C(=O)N[C@@H](CCCNC(=N)N)C(=O)NCC(=O)N[C@@H](Cc1ccc(O)cc1)C(=O)N[C@@H](Cc1ccc(O)cc1)C(=O)O)C(C)C [YLVBGERGYY] (H-YLV[Cya]GERGYY-OH)", "IC50, nM": 2420}
{"compound": "CC(C)C[C@H](NC(=O)[C@@H](N)Cc1ccc(O)cc1)C(=O)N[C@H](C(=O)N[C@@H](CS)C(=O)NCC(=O)N[C@@H](CCC(=O)O)C(=O)N[C@@H](CCCNC(N)=O)C(=O)NCC(=O)N[C@@H](Cc1ccccc1)C(=O)N[C@@H](Cc1ccccc1)C(=O)O)C(C)C (H-YLVCGE[Cit]GFF-OH)", "IC50, nM": 2620}

input: Requested read-out: IC50. Entry: CC(C)C[C@H](NC(=O)[C@H](Cc1ccc(O)cc1)NC(=O)[C@@H](N)CC(C)C)C(=O)N[C@H](C(=O)N[C@@H](CS(=O)(=O)O)C(=O)NCC(=O)N[C@@H](CCC(=O)O)C(=O)N[C@@H](CCCNC(=N)N)C(=O)NCC(=O)N[C@@H](Cc1ccc(O)cc1)C(=O)O)C(C)C [LYLVBGERGY] (H-LYLV[Cya]GERGY-OH)
output: 35500

* * *

# test-target: HLA-A*02:01 (Homo sapiens, UniProt P04439, D140Y/D185E/D98H/E176V/E277Q/G131W/G231S/I119V/I121R/I166T/I218V/L300P/L318F/N151K/N90K/P208A/P217A/Q86G/Q94H/R138H/R169H/T345S)
# assay-protocol: HLA-peptide competition binding assay, A*02:01
# conditions-used: read-out: IC50 nM, target assay A*02:01
Where no end group is shown, it is not given here.
endpoint-name: IC50 (nM)

{"macromolecule-sequence": "SLEEEIRFL [reference compound]", "experimental-value": 472}

[a] ILDKKVEKV [reference compound]
[b] ILAVDGVLSV [reference compound]
[c] FLLSLFSLWL [reference compound]
input: // smallest IC50 at index 0, largest at the end Reply with the labels, ordered as the question asks.
output: b, c, a
(b: 2.2 nM, c: 16 nM, a: 11200 nM)

[I] STVASRLGPV [reference compound]
[II] IQATVMIIV [reference compound]
input: Returns the identifier with the smallest measured IC50 among I and II . Bench note: the answer is the label of the chosen record.
output: II
(II: 9040 nM, I: 25100 nM)

[A] WLLPLWAALPL [reference compound]
[B] FIQVYEVERA [reference compound]
input: Thinking about recorded IC50 values, which is higher, A or B ? # respond with the chosen item's label
output: B
